# assayed target: Native Aequorin (Aequorea victoria)
# Construct: His tag (from the vector name piP-His-HE); made in house
# Sequence (P02592 9-196 limits assumed): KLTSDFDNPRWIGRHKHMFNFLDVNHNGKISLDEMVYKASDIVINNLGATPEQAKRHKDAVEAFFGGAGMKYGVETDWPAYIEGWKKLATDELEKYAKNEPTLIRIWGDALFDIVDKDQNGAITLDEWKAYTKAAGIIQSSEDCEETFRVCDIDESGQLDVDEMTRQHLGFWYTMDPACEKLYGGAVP
# protocol text: Substrate specificity: semi-synthetic aequorin from coelenterazine analogue and purified apoaequorin
# Assay type: biochemical
# settings: CTZ = 100
# Method: AM20 was prepared to examine the properties. Specifically, 1 ml of 30 mM Tris-HCl (pH 7.6) containing 10 mM EDTA was mixed with 2-mercaptoethanol (1 μl) and a solution of the coelenterazine analogue (1 μg/μl) dissolved in ethanol. Then, 10 μl of the purified apoaequorin or recombinant mutant apoaequorin AM20 was added to the mixture, which was allowed to stand on ice (4° C.) for 5 hours to perform the regeneration reaction. […] The half decay time was determined from the luminescence patterns.
quantity name: Luminescence Intensity for 60 Secs (%)
Give just the number in %; leave the unit off.

Study these solved cases before continuing.
INSERT INTO measurements (substance_smiles, value_unit, numeric_readout) VALUES
  ('Cc1cccc(Cc2nc3c(Cc4ccccc4)[nH]c(-c4ccc(O)cc4)cn-3c2=O)c1', '%', 21.2),
  ('O=c1c(Cc2cccc(O)c2)nc2c(Cc3ccccc3)[nH]c(-c3ccc(O)cc3)cn1-2', '%', 13.4),
  ('Oc1ccc(-c2cn3c(O)c(Cc4ccccc4)nc3c(Cc3ccccc3)n2)cc1', '%', 70.1),
  ('Oc1ccc(Cc2nc3c(Cc4ccccc4)nc(-c4ccc(O)cc4)cn3c2O)cc1', '%', 100);

Specify Luminescence Intensity for 60 Secs for `COc1ccc(Cc2nc3c(Cc4ccccc4)[nH]c(-c4ccc(O)cc4)cn-3c2=O)cc1` and stop.
60.1

Quick one: give measured Luminescence Intensity for 60 Secs for `COc1cccc(Cc2nc3c(Cc4ccccc4)[nH]c(-c4ccc(O)cc4)cn-3c2=O)c1`
35.6

Provide measured Luminescence Intensity for 60 Secs value, entry: `O=c1c(Cc2ccccc2)nc2c(CC3CCCC3)[nH]c(-c3ccc(O)cc3)cn1-2`
14.3

Answer with reported Luminescence Intensity for 60 Secs of `Cc1ccc(Cc2nc3c(Cc4ccccc4)[nH]c(-c4ccc(O)cc4)cn-3c2=O)cc1`
45.0

Specify reported Luminescence Intensity for 60 Secs for the compound shown: `O=c1c(Cc2ccc(C(F)(F)F)cc2)nc2c(Cc3ccccc3)[nH]c(-c3ccc(O)cc3)cn1-2`
48.6
